Cited source for all entries: patent US10273227B2

system: Ba/F3-Parental; assay: MTS viability assay, Ba/F3 parental cells; type: cell-based; conditions: Mus musculus, BaF3, 72 h incubation, top concentration 10 uM
READOUT_KIND: GI50

compound="COc1cc(OCCN(C)C)cc2ncnc(Nc3ccc(NC(=O)Cn4cc(C(C)C)nn4)cc3)c12 [Example 17]" tested_target=Ba/F3-Parental readout_kind=GI50 reading="≥ 10 µM"
compound="CCOc1cc(OCCN(C)C)cc2ncnc(Nc3ccc(NC(=O)Cn4cc(C(C)C)nn4)cc3)c12 [Example 6]" tested_target=Ba/F3-Parental readout_kind=GI50 reading="2.05 µM"
compound="CCOc1cc(OC2CCOCC2)cc2ncnc(Nc3ccc(NC(=O)Cn4cc(C(C)C)nn4)cc3)c12 [Example 5]" tested_target=Ba/F3-Parental readout_kind=GI50 reading="1.87 µM"
compound="CCOc1cc(OC)c2c(Nc3ccc(NC(=O)Cn4cc(C(C)C)nn4)cc3)ncnc2c1 [Example 18]" tested_target=Ba/F3-Parental readout_kind=GI50 reading="≥ 10 µM"
compound="COc1cc(OC2CCOCC2)cc2ncnc(Nc3ccc(NC(=O)Cn4cc(C(C)C)nn4)cc3)c12 [Example 10]" tested_target=Ba/F3-Parental readout_kind=GI50 reading="≥ 10 µM"
compound="COc1cc(OC)c2c(Nc3ccc(NC(=O)Cn4cc(C(C)C)nn4)cc3)ncnc2c1 [Example 22]" tested_target=Ba/F3-Parental readout_kind=GI50 reading="≥ 10 µM"
compound="COc1cc(OC(C)C)cc2ncnc(Nc3ccc(NC(=O)Cn4cc(C(C)C)nn4)cc3)c12 [Example 15]" tested_target=Ba/F3-Parental readout_kind=GI50 reading="≥ 10 µM"
compound="CCOc1cc(OCC)c2c(Nc3ccc(NC(=O)Cn4cc(C(C)C)nn4)cc3)ncnc2c1 [Example 19]" tested_target=Ba/F3-Parental readout_kind=GI50 reading="≥ 10 µM"

---

target: Ba/F3-V654A (KIT exon11 deletion (557-558) and secondary mutation V654A) (Homo sapiens, UniProt P10721, DEL557-558/V654A); construct: expressed in transfected cells; host or cells: Ba/F3 cells, lentiviral transduction (pLVX-IRES Puro); test: MTS viability assay, Ba/F3 expressing KIT exon11 deletion (557-558) and V654A; assay type: cell-based; conditions: 72 h incubation, top concentration 10 uM
Sequence (P10721 with tags, fused parts or gaps DEL557-558/V654A): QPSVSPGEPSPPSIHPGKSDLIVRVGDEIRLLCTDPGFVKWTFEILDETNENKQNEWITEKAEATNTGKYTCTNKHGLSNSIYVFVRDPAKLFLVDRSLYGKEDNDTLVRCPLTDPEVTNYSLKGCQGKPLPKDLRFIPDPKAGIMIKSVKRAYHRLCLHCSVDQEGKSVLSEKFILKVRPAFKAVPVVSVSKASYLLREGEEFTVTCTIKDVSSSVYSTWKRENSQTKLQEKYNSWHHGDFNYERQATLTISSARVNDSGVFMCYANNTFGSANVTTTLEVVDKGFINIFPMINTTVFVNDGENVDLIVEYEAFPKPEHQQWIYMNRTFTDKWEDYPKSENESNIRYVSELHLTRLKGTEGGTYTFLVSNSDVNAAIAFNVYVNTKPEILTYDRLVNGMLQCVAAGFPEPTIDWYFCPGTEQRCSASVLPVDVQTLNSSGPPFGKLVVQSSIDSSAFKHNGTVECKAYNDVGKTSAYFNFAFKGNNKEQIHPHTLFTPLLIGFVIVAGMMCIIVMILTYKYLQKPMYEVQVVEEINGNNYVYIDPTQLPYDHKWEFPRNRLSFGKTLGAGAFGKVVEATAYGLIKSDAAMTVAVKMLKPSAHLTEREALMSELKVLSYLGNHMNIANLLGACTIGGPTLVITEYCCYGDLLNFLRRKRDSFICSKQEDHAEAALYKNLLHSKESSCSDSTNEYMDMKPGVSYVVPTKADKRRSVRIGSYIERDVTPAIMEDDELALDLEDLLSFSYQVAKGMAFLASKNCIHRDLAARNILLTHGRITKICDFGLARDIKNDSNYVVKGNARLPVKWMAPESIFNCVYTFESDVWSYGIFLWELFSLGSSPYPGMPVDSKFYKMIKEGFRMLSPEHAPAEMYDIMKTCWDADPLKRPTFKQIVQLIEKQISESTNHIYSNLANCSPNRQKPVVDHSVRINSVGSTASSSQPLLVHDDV
READOUT_KIND: Ba/F3-V654A GI50 (nM)

smiles_entry=COc1cc(OC2COC2)cc2ncnc(Nc3ccc(NC(=O)Cn4cc(C(C)C)nn4)cc3)c12 readout_kind="Ba/F3-V654A GI50" reading=12
smiles_entry=COc1cc(OC)c2c(Nc3ccc(NC(=O)Cn4cc(C(C)C)nn4)cc3)ncnc2c1 readout_kind="Ba/F3-V654A GI50" reading=3
smiles_entry=COc1cc(OC(C)C)cc2ncnc(Nc3ccc(NC(=O)Cn4cc(C(C)C)nn4)cc3)c12 readout_kind="Ba/F3-V654A GI50" reading=11
smiles_entry=CCOc1cc(OC)c2c(Nc3ccc(NC(=O)Cn4cc(C(C)C)nn4)cc3)ncnc2c1 readout_kind="Ba/F3-V654A GI50" reading=3
smiles_entry=COc1cc2ncnc(Nc3ccc(NC(=O)Cn4cc(C(C)C)nn4)cc3)c2c(F)c1OC readout_kind="Ba/F3-V654A GI50" reading=4
smiles_entry=CCOc1cc(OCCOC)cc2ncnc(Nc3ccc(NC(=O)Cn4cc(C(C)C)nn4)cc3)c12 readout_kind="Ba/F3-V654A GI50" reading=15

---

test system: Ba/F3-Parental; test: MTS viability assay, Ba/F3 parental cells; assay type: cell-based; conditions: Mus musculus, BaF3, 72 h incubation, top concentration 10 uM
READOUT_KIND: GI50 (µM)

smiles_entry=COc1cc(F)c2c(Nc3ccc(NC(=O)Cn4cc(C(C)C)nn4)cc3)ncnc2c1 readout_kind=GI50 rel=≥ reading=10
smiles_entry=COCCOc1cc(OC)c2c(Nc3ccc(NC(=O)Cn4cc(C(C)C)nn4)cc3)ncnc2c1 readout_kind=GI50 rel== reading=9.96
smiles_entry=CCOc1cc(OCCOC)cc2ncnc(Nc3ccc(NC(=O)Cn4cc(C(C)C)nn4)cc3)c12 readout_kind=GI50 rel== reading=2.55
smiles_entry=CCOc1cc(OC2COC2)cc2ncnc(Nc3ccc(NC(=O)Cn4cc(C(C)C)nn4)cc3)c12 readout_kind=GI50 rel== reading=1.71

---

Biological target: Ba/F3-V654A (KIT exon11 deletion (557-558) and secondary mutation V654A) (Homo sapiens, UniProt P10721, DEL557-558/V654A)
Construct: expressed in transfected cells; host or cells: Ba/F3 cells, lentiviral transduction (pLVX-IRES Puro)
Assay: MTS viability assay, Ba/F3 expressing KIT exon11 deletion (557-558) and V654A
Type: cell-based
Details: 72 h incubation, top concentration 10 uM
Method: Exponentially grown Ba/F3 cells (1.5×10^6 cells in 2 ml medium) were infected with 2 ml of viral suspension in a 6-well plate in the presence of mIL-3 (10 ng/ml) and polybrene (4 μg/ml) (Sigma Aldrich, St. Louis, Mo.) and incubated for 24 h. […] The impact of KIT inhibitors on the viability of Ba/F3 expressing KIT mutations was determined using an MTS assay, which is a colorimetric sensitive quantification of viable cells in proliferation and cytotoxicity assay. […]
Documented Ba/F3-V654A GI50 across a set of molecules
READOUT_KIND: Ba/F3-V654A GI50 (nM)

molecule="CCOc1cc(OC2CCOCC2)cc2ncnc(Nc3ccc(NC(=O)Cn4cc(C(C)C)nn4)cc3)c12 [Example 5]" readout_kind="Ba/F3-V654A GI50" measure_unit=nM reading=41
molecule="COc1cc(F)c2c(Nc3ccc(NC(=O)Cn4cc(C(C)C)nn4)cc3)ncnc2c1 [Example 21]" readout_kind="Ba/F3-V654A GI50" measure_unit=nM reading=2
molecule="COCCOc1cc(F)c2c(Nc3ccc(NC(=O)Cn4cc(C(C)C)nn4)cc3)ncnc2c1 [Example 12]" readout_kind="Ba/F3-V654A GI50" measure_unit=nM reading=2
molecule="CCOc1cc(OCC)c2c(Nc3ccc(NC(=O)Cn4cc(C(C)C)nn4)cc3)ncnc2c1 [Example 19]" readout_kind="Ba/F3-V654A GI50" measure_unit=nM reading=7

---

Molecular target: Ba/F3-T670I (KIT exon11 deletion (557-558) and secondary mutation T670I) (Homo sapiens, UniProt P10721, DEL557-558/T670I)
Construct: expressed in transfected cells; host or cells: Ba/F3 cells, lentiviral transduction (pLVX-IRES Puro)
Sequence (P10721 with tags, fused parts or gaps DEL557-558/T670I): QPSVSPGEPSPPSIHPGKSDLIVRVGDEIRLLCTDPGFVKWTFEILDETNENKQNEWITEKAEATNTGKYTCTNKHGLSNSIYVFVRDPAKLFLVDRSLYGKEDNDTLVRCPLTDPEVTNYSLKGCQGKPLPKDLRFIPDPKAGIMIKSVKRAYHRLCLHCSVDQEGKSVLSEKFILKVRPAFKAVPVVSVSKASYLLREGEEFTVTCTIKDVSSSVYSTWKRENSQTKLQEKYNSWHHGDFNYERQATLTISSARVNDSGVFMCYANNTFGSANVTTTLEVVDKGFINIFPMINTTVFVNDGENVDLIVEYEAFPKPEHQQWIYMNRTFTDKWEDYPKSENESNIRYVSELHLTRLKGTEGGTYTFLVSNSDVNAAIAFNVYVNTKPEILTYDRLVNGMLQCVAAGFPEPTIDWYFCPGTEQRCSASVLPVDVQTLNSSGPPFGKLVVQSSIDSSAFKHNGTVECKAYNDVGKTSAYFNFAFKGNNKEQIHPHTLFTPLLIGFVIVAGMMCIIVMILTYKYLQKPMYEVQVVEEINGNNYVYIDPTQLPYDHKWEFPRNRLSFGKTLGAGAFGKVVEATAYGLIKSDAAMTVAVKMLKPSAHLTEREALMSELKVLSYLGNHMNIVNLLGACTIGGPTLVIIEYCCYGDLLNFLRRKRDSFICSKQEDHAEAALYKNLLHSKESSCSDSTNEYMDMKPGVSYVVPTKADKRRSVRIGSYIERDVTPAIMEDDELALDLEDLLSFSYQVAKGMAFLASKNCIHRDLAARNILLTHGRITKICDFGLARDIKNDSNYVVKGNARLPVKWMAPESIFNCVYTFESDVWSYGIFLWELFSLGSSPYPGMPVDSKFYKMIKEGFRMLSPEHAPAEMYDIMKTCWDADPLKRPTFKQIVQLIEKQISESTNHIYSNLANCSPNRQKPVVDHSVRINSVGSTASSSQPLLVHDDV
Assay: MTS viability assay, Ba/F3 expressing KIT exon11 deletion (557-558) and T670I
Format: cell-based
Settings: 72 h incubation, top concentration 10 uM
Experimental: Exponentially grown Ba/F3 cells (1.5×10^6 cells in 2 ml medium) were infected with 2 ml of viral suspension in a 6-well plate in the presence of mIL-3 (10 ng/ml) and polybrene (4 μg/ml) (Sigma Aldrich, St. Louis, Mo.) and incubated for 24 h. […] The impact of KIT inhibitors on the viability of Ba/F3 expressing KIT mutations was determined using an MTS assay, which is a colorimetric sensitive quantification of viable cells in proliferation and cytotoxicity assay. […]
READOUT_KIND: Ba/F3-T670I GI50 (nM)

smiles_entry=COc1cc(OC2CCOCC2)cc2ncnc(Nc3ccc(NC(=O)Cn4cc(C(C)C)nn4)cc3)c12 readout_kind="Ba/F3-T670I GI50" reading=640
smiles_entry=CCOc1cc(OC)cc2ncnc(Nc3ccc(NC(=O)Cn4cc(C(C)C)nn4)cc3)c12 readout_kind="Ba/F3-T670I GI50" reading=73
smiles_entry=CCOc1cc(OCC)c2c(Nc3ccc(NC(=O)Cn4cc(C(C)C)nn4)cc3)ncnc2c1 readout_kind="Ba/F3-T670I GI50" reading=34
smiles_entry=COc1cc2ncnc(Nc3ccc(NC(=O)Cn4cc(C(C)C)nn4)cc3)c2c(F)c1OC readout_kind="Ba/F3-T670I GI50" reading=49
smiles_entry=CCOc1cc(OCCN(C)C)cc2ncnc(Nc3ccc(NC(=O)Cn4cc(C(C)C)nn4)cc3)c12 readout_kind="Ba/F3-T670I GI50" reading=91
smiles_entry=CCOc1cc(OCCOC)cc2ncnc(Nc3ccc(NC(=O)Cn4cc(C(C)C)nn4)cc3)c12 readout_kind="Ba/F3-T670I GI50" reading=32
smiles_entry=COc1cc(F)c2c(Nc3ccc(NC(=O)Cn4cc(C(C)C)nn4)cc3)ncnc2c1 readout_kind="Ba/F3-T670I GI50" reading=68
smiles_entry=CCOc1cc(OC2CCOCC2)cc2ncnc(Nc3ccc(NC(=O)Cn4cc(C(C)C)nn4)cc3)c12 readout_kind="Ba/F3-T670I GI50" reading=591
smiles_entry=COc1cc2ncnc(Nc3ccc(NC(=O)Cn4cc(C(C)C)nn4)cc3)c2c(OC)c1OC readout_kind="Ba/F3-T670I GI50" reading=36
smiles_entry=COCCOc1cc(OC)c2c(Nc3ccc(NC(=O)Cn4cc(C(C)C)nn4)cc3)ncnc2c1 readout_kind="Ba/F3-T670I GI50" reading=53
